test system: K4 kissing-loop RNA reporter; test: apparent KD of K4 kissing-loop reporter; higher = weaker reporter binding; conditions: Eterna round: R107; input ligand: arginine 13.2 mM;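 also: bound reporter read as fluorescence of individual clusters on recovered sequencing chips by microscopy, with normalized cluster intensities fitted with a binding model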
quantity-name: apparent KD of K4 kissing-loop reporter (µM)
Write the number in µM without appending the unit.

Using the record for UGGCAAGUGAUGUUUGCGUUUCCGCAGGAUACCAGUCUGUCUUGAGACCCUUGGCAGCCUGGGUACAGUCCAAGCGGUCACACGA [theeternabot_exclusion_KL_Theo_A_38] , report its apparent KD of K4 kissing-loop reporter.
0.297

What value of apparent KD of K4 kissing-loop reporter has been reported for the following sequence? UAAUCCUAGUGAUAAUAAUCAAGUGGUGGGCGAGGACCGGUACGGCCGCCACUCGAAAAUGCAGUGAUGUUGUAAUCCGGAUAAU [Exclusion - Tryptophan A (Freestyle 5)]
0.874

I am curious: what apparent KD of K4 kissing-loop reporter value has been reported for UGCGCUGUGUACUGAAAUGUCCUGCGGGAUACCAGAGUCUUUUUAUUCCCUUGGCAGCUUGAGUGAUGUUUGAUGCCGUUCUUGU [frrgmullin] ?
0.423

Looking for the measured apparent KD of K4 kissing-loop reporter of AGUUCUUGCCGAAGGAGCGAGGCAGAGUGAUGUUCUGCACGAGGUCGAAAGACCUCGCUGCCUCAGGUAGGUCGCGGCAUGAACA [Omei KL Arginine B Exc A v2] , can you help?
0.504

# query: apparent KD of K4 kissing-loop reporter of entry CCGUGGAGUGAUGUUCCACGUACUACGGAUACCAGCUUUGCCAAAGGCCCUUGGCAGCCGCACGGCUCAGUGAUGUUGGGUCGCG [Same State Theophylline A G10]
0.153

Param item = GCCGUAGAUGGAAGGAGCGUGAUAAGUGAAUUAUCCAGUGAUGUUGGAUCUUAGAUAGGAUCACAGGUAGGUCGCCAUCUACGGC ; retrieve measured apparent KD of K4 kissing-loop reporter.
0.181

May I ask what apparent KD of K4 kissing-loop reporter has been recorded for CGCAGUGAUGUUGCUAUUGUUCUUGGUUAACGAGGACCGGUACGGCCGCCACUCGAUGUCUGUCUAGUCCAGUGUUUUUUUGAGU [whbob_EX_Tryp_A_t9] ?
0.493

Value lookup for apparent KD of K4 kissing-loop reporter; key = UCACGUGCCAGUGAUGUUGGCGUACGUGAUACCAGACGAAUAAAAGUCCCUUGGCAGCACAAAUAUGCCAAGUUAGAUGUAUGAU [Exclusion Theophylline A GF 2]
0.122

Need apparent KD of K4 kissing-loop reporter, item CCGCUGUACUGCAAUAAGUGAUGUUUAUUGCAGGAUAUCUGGAAACAGAGAAGGGCAUGUACUCGACUUAGCCACUACAGCGGUU
0.0573

Look up apparent KD of K4 kissing-loop reporter: CACUCGGUAUCAGAUACCAGACUAACGAUACCGAGUGUAUCGGGUAGUGAUGUUACCAUAGUCCCUUGGCAGCUGAUAUUCCCUA [Theo B SS t9a]
0.203

What value of measured apparent KD of K4 kissing-loop reporter is listed for AACUCUCAGAUACUUGAGUGAUGUUCAGGCCGAGGACCGGUACGGCCGCCACUCGGGUCUGAGAGAGGUUAUCAAAGAUAGCCAA [Omei KL Tryp A SS A v10] ?
0.197

What value of apparent KD of K4 kissing-loop reporter has been recorded for this entry: GGUUUCUGAAGUGAUGUUUCAGGAUGACACAAGGAUAUAUAUGGCGAUAGAAGGUGUGCGUCGCAUGACGAACGACGUCAGCUUC [theeternabot_exclusion_KL_FMN_A_37]
0.0809
